subject.of.test: Hepatocyte growth factor receptor (Homo sapiens)
Sequence (P08581 whole entry): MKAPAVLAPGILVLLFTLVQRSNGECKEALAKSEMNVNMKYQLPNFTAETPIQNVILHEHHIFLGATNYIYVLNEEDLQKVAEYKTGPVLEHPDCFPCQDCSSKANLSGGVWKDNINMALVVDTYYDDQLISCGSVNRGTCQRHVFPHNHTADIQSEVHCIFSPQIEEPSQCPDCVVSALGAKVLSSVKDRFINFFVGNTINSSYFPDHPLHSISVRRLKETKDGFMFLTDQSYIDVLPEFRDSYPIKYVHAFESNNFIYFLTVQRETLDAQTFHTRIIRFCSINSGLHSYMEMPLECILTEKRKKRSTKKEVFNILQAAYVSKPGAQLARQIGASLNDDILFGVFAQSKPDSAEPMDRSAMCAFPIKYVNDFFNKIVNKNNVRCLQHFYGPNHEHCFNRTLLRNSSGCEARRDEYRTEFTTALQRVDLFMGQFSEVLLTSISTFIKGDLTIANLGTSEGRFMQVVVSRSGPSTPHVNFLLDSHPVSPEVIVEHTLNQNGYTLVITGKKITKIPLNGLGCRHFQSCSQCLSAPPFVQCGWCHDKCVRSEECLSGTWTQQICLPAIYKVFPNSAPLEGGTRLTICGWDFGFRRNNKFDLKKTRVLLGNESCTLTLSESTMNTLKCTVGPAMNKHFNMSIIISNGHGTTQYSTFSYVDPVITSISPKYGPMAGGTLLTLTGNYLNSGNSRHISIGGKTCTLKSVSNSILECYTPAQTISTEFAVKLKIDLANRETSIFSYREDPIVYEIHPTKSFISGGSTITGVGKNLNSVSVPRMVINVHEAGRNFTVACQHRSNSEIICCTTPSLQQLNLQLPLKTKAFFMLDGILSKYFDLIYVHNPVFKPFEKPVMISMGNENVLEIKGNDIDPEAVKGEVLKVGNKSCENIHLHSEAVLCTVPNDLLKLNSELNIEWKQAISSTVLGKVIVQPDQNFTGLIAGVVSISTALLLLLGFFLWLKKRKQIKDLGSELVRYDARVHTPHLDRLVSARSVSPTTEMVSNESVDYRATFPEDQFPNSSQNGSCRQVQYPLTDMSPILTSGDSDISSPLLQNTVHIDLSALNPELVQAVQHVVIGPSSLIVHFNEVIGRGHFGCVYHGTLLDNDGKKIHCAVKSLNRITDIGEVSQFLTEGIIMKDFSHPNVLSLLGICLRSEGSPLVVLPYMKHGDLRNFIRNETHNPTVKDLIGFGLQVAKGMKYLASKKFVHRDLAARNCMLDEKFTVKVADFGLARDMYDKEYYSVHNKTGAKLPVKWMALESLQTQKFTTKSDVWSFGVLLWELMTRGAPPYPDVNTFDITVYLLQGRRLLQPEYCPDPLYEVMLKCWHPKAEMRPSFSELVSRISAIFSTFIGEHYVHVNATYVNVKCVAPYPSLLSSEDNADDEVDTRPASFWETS
readout: IC50

Returns the measured IC50 for the input compound. Input: COc1ccc2cc(-c3c(-c4ccncc4)nc(-c4ccc([S+](C)[O-])cc4C)n3C)ccc2c1 (stereo unspecified)
> 30 µM

====

subject.of.test: Platelet-derived growth factor receptor alpha (Homo sapiens)
Sequence (P16234 whole entry): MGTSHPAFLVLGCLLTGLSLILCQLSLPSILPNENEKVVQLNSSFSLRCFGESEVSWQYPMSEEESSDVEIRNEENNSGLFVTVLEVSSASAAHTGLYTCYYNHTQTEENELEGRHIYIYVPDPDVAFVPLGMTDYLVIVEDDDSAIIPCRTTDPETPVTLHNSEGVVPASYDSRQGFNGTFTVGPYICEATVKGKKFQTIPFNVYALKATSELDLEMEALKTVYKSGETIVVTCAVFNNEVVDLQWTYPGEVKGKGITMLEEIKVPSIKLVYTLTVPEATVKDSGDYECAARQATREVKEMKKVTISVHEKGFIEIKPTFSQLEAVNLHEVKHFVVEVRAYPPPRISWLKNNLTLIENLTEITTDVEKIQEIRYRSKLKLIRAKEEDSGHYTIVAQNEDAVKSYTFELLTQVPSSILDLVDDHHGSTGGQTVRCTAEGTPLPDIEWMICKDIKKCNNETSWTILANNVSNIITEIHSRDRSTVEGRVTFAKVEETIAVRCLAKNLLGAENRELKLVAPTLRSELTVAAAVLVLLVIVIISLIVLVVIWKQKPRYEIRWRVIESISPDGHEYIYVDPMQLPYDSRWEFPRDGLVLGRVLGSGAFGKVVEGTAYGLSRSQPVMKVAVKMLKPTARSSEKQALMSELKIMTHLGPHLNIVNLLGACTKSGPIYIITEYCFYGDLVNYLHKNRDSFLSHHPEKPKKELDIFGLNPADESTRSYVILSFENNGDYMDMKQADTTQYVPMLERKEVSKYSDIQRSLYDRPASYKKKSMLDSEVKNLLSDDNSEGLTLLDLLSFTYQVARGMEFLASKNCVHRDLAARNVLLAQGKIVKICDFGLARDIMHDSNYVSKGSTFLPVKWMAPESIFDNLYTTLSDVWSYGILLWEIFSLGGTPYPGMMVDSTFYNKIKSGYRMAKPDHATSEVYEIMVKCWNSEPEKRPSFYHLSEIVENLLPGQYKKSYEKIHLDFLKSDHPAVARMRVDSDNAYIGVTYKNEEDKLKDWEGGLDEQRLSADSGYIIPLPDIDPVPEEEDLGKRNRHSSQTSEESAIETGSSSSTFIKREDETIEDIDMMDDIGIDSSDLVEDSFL
pIC50: −log10 of the molar value.
readout: pIC50

Look up pIC50 with Platelet-derived growth factor receptor alpha (Homo sapiens) for this molecule: COc1ccc2cc(-c3c(-c4ccncc4)nc(-c4ccc([S+](C)[O-])cc4C)n3C)ccc2c1 (stereo unspecified)
< 4.52

====

subject.of.test: Macrophage colony-stimulating factor 1 receptor (Homo sapiens, UniProt P07333)
Sequence (P07333 whole entry): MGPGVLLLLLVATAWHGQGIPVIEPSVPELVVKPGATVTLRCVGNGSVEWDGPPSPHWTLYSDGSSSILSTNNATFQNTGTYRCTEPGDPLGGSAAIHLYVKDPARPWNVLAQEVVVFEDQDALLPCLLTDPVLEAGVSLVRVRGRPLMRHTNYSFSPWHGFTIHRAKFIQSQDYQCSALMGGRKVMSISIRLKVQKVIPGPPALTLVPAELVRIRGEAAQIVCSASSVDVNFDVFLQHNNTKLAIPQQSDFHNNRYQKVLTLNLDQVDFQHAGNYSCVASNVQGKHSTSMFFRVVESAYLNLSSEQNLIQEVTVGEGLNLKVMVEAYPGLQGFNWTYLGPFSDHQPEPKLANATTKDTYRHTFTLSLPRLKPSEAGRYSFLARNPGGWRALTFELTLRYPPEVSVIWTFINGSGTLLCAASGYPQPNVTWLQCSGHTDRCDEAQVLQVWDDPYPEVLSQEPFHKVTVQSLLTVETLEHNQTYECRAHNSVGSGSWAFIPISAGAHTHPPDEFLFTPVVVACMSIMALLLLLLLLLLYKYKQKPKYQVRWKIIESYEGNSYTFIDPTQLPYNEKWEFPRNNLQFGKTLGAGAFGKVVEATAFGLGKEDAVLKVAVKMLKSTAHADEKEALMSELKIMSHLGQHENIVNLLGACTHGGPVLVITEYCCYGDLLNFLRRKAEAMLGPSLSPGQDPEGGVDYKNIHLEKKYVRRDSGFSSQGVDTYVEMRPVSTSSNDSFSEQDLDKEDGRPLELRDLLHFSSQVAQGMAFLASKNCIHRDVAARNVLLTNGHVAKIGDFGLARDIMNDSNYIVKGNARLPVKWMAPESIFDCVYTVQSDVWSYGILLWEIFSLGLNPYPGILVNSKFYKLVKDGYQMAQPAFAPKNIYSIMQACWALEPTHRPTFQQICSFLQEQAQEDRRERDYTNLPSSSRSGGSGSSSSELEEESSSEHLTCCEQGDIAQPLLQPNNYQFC
readout: pIC50
Remember, pIC50 is on a log scale: it is -log10 of the molar concentration.

Record request: pIC50 value, item COc1ccc2cc(-c3c(-c4ccncc4)nc(-c4ccc([S+](C)[O-])cc4C)n3C)ccc2c1 (stereo unspecified)
6.26

====

subject.of.test: Platelet-derived growth factor receptor beta (Homo sapiens)
Sequence (P09619 whole entry): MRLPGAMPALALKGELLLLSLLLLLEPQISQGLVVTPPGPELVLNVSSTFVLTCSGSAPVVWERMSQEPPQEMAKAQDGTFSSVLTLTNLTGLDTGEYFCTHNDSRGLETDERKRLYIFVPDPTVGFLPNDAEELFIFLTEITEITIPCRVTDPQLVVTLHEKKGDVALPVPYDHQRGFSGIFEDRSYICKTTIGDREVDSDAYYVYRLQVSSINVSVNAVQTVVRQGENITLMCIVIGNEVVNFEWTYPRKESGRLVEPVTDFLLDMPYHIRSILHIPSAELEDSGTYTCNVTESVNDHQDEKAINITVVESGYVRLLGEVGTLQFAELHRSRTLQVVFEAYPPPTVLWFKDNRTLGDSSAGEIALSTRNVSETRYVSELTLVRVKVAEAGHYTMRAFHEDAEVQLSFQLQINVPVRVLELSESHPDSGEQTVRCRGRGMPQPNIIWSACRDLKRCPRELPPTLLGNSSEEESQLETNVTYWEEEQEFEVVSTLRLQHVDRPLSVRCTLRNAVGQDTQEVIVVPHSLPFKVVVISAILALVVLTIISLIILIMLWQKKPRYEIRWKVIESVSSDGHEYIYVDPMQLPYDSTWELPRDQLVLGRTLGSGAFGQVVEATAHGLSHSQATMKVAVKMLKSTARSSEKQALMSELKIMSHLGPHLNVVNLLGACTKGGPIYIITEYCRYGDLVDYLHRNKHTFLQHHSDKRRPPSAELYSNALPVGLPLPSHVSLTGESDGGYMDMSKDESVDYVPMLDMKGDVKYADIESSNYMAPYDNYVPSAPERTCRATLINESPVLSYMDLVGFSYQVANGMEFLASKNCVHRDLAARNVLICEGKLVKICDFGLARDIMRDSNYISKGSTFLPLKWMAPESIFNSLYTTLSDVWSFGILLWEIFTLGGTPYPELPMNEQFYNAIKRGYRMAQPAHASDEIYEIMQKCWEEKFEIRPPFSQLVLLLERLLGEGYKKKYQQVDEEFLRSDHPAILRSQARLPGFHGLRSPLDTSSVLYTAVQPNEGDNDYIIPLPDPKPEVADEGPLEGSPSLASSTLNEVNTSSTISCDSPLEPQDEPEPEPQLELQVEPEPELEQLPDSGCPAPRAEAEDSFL
pIC50: −log10 of the molar value.
readout: pIC50

Look up pIC50: COc1ccc2cc(-c3c(-c4ccncc4)nc(-c4ccc([S+](C)[O-])cc4C)n3C)ccc2c1 (stereo unspecified)
< 4.52

====

subject.of.test: UniProtKB P36888
Sequence (P36888 whole entry): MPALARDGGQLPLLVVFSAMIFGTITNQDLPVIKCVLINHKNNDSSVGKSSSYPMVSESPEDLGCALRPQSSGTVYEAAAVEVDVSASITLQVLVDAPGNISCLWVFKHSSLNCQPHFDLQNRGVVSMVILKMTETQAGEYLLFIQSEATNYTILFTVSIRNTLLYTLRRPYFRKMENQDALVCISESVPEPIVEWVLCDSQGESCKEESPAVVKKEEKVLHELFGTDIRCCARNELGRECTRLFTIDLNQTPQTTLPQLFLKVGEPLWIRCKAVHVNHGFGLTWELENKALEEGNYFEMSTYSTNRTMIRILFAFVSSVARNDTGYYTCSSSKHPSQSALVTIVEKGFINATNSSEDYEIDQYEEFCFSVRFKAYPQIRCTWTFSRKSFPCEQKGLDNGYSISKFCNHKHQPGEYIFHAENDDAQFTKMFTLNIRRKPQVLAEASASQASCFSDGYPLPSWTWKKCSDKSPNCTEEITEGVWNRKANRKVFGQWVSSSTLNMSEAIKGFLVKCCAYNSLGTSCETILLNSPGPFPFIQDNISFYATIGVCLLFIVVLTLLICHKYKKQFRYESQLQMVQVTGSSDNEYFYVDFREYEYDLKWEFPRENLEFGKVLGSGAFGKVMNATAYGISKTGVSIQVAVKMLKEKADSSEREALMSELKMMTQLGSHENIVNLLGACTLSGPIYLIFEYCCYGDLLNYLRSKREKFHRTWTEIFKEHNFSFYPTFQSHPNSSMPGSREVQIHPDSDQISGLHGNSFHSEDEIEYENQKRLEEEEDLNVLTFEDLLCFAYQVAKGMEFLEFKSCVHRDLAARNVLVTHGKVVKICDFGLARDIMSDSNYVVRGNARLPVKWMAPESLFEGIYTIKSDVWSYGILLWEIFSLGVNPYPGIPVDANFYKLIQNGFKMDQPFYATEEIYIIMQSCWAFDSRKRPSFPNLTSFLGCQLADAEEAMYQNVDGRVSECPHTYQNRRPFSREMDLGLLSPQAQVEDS
readout: IC50

Query (compound): COc1ccc2cc(-c3c(-c4ccncc4)nc(-c4ccc([S+](C)[O-])cc4C)n3C)ccc2c1 (stereo unspecified) ; field requested: IC50
> 30 µM
